# ASSAY REMARKS: Pharmacokinetics of vorolanib after single and multiple dosing
# Type: in vivo, human
# COND: human, plasma, oral, 25 mg, single dose 25 mg, n = 8; median (range); read-out: Tmax
MEASURED ENDPOINT: Tmax
State the value, then name its unit.

State the recorded Tmax for this entry: Cc1[nH]c(/C=C2\C(=O)Nc3ccc(F)cc32)c(C)c1C(=O)N[C@H]1CCN(C(=O)N(C)C)C1
3.03 h

---

# ASSAY REMARKS: Pharmacokinetics of vorolanib after single and multiple dosing
# Type: in vivo, human
# COND: human, plasma, oral, 50 mg, single dose 50 mg, n = 8; arithmetic mean (%CV)
MEASURED ENDPOINT: half-life
State the value, then name its unit.

State the recorded half-life for this entry: Cc1[nH]c(/C=C2\C(=O)Nc3ccc(F)cc32)c(C)c1C(=O)N[C@H]1CCN(C(=O)N(C)C)C1 [vorolanib, Vorolanib]
642 min

---

# ASSAY REMARKS: Pharmacokinetics of vorolanib after single and multiple dosing
# Assay type: in vivo, human
# COND: human, plasma, oral, 75 mg, single dose 75 mg, n = 8; arithmetic mean (%CV)
# Protocol: In the initial PK evaluation after a single dose, blood samples from participants in the 25 mg group were collected predose (−0.5 h) and at 0.5, 1, 2, 3, 4, 6, 8, 12, 16, 24, 36, and 48 h post-dose; blood samples from participants in the 50 mg and 75 mg groups were collected predose (−0.5 h) and at 0.5, 1, 2, 3, 4, 6, 8, 12, 16, 24, 36, 48, and 72 h post-dose. […]
MEASURED ENDPOINT: half-life
State the value, then name its unit.

State the recorded half-life for this entry: Cc1[nH]c(/C=C2\C(=O)Nc3ccc(F)cc32)c(C)c1C(=O)N[C@H]1CCN(C(=O)N(C)C)C1
618 min

---

# ASSAY REMARKS: Pharmacokinetics of vorolanib after single and multiple dosing
# Assay type: in vivo, human
# COND: human, plasma, oral, 25 mg, single dose 25 mg, n = 8; arithmetic mean (%CV); read-out: Cmax
MEASURED ENDPOINT: Cmax
State the value, then name its unit.

State the recorded Cmax for this entry: Cc1[nH]c(/C=C2\C(=O)Nc3ccc(F)cc32)c(C)c1C(=O)N[C@H]1CCN(C(=O)N(C)C)C1 [vorolanib, Vorolanib]
140 ng/mL

---

# ASSAY REMARKS: Pharmacokinetics of vorolanib after single and multiple dosing
# Format: in vivo, human
# COND: human, plasma, oral, 75 mg, multiple doses 75 mg daily, n = 8; median (range); read-out: Tmax,ss
MEASURED ENDPOINT: Tmax (h)
Supply the numeric figure in h, leaving out any unit text.

State the recorded Tmax for this entry: Cc1[nH]c(/C=C2\C(=O)Nc3ccc(F)cc32)c(C)c1C(=O)N[C@H]1CCN(C(=O)N(C)C)C1 [vorolanib, Vorolanib]
4
